Listed next: entries and their corresponding melting point.

Examples with answers:
Cc1ccc(S(=O)(=O)NC(=O)NCCN2CCC(Oc3ccc(Cl)c(Cl)c3)CC2)cc1    179.6 to 180.3 °C
O=C(NS(=O)(=O)CCN1CCC(Oc2ccc(Cl)c(Cl)c2)CC1)c1ccccc1Cl    237 to 239 °C
Cc1ccc(S(=O)(=O)NC(=O)CCN2CCC(Oc3ccc(Cl)c(Cl)c3)CC2)cc1    177 to 179 °C

Here's the next entry for you.
Query block: Returns the measured melting point for the input molecule. Input: `O=C(NS(=O)(=O)NCCCN1CCC(Oc2ccc(Cl)c(Cl)c2)CC1)c1ccccc1`
Result block: 93 to 106 °C

Value source: patent US7265227B2
